All figures here come from ChEMBL document CHEMBL1255307.

assay: Antimicrobial activity against aheB deficient kanamycin-resistant Aeromonas hydrophila subsp. hydrophila ATCC 7966 harboring plasmid pEX19Gm by agar dilution method; format: functional
Answer each item with its documented MIC.
Answers are plain numbers, in µg/mL.

These solved cases illustrate the format of a correct answer.
{"compound": "CCN1CCN(C(=O)N[C@@H](C(=O)N[C@@H]2C(=O)N3C(C(=O)O)=C(CSc4nnnn4C)CS[C@H]23)c2ccc(O)cc2)C(=O)C1=O [CEFOPERAZONE]", "reading": 0.06}
{"compound": "COc1cc(Cc2cnc(N)nc2N)cc(OC)c1OC [TRIMETHOPRIM]", "reading": 8}
{"compound": "CO/N=C(\\C(=O)N[C@@H]1C(=O)N2C(C(=O)O)=C(COC(N)=O)CS[C@H]12)c1ccco1 [CEFUROXIME]", "reading": 0.25}

# input for lookup
Task: Please give the measured MIC for this compound: CC[C@H]1OC(=O)[C@H](C)[C@@H](O[C@H]2C[C@@](C)(OC)[C@@H](O)[C@H](C)O2)[C@H](C)[C@@H](O[C@@H]2O[C@H](C)C[C@H](N(C)C)[C@H]2O)[C@](C)(O)C[C@@H](C)C(=O)[C@H](C)[C@@H](O)[C@]1(C)O [ERYTHROMYCIN]
Output: 8
